- Tested on: MS2 coat protein
- TEST_NAME: apparent KD of MS2 coat protein; higher = weaker reporter binding
- ASSAY_CONTEXT: Eterna round: R107; input ligand: theophylline 20 uM
QUANTITY: apparent KD of MS2 coat protein
Please answer in the form of a number followed by its unit of measurement.

| SEQUENCE_CODE | apparent KD of MS2 coat protein |
| --- | --- |
| CGUAUGUAGACGGCCGCCACUGGAACCUGAGGAUCACCCAGGUACAGGGUGGGUAACUCGAGAGUCAGGACCGGGUCUACAUACA [Tryp B Ex t3] | 0.0651 µM |
| UACUUGCUGACGGCCGCCACUAGAACAUGAGGAUCACCCAUGUACCCGGUCCUACAUGGGAUGACUAGGACCGGGUCAGCAAGAU [(Trp1)-(Ms2)-(T)'-(M)'-(Trp2)_Design3] | 0.0724 µM |
| AAAUGAAGGCGAAGGAGCGCGAACAUGAGGAUCACCCAUGUGUAUGUAUGUAGUCAUGUAUCGCAGGUAGGUCGCGCUGUUACAU [Exclusion Arginine B] | 0.276 µM |

Query block: Param item = CUAUAAGUAACUGAUACCAGUGUACUGACAUGAGGAUCACCCAUGUUGGGUUUUGUUGUACACCCUUGGCAGCAGAAUCUUAUAG [AstrosExyTheB#14] ; retrieve measured apparent KD of MS2 coat protein.
Result block: 0.0703 µM

Query block: Param item = ACAGGUACGCCUAUUAAAAUAAAACACCUACGAGGACCGGUACGGCCGCCACUCGGGUGACAUGAGGAUCACCCAUGUGGCUAAA [Ceeron] ; retrieve measured apparent KD of MS2 coat protein.
Result block: 0.61 µM

Query block: Param item = GAGGGUGGGUCUCUAAUCCGUUUGACGGAUACCAGCGAGAGAUAUCGCCCUUGGCAGCCGACGACAUGAGGAUCACCCAUGUAAA [#06 Exclusion-TheophyllineA] ; retrieve measured apparent KD of MS2 coat protein.
Result block: 0.0196 µM

----------
- Tested on: MS2 coat protein
- TEST_NAME: apparent KD of MS2 coat protein; designed switch direction (-1 OFF switch, 1 ON switch): -1; higher = weaker reporter binding
- ASSAY_CONTEXT: input ligand: none
Use 50 nM as the dividing line for apparent KD of MS2 coat protein, with the line itself on the fulfilled side and lower values as not fulfilled.

Example cases with answers are listed next.
| SEQUENCE_CODE | ASSAYED_SYSTEM | LABEL |
| --- | --- | --- |
| CUGCUGGAGCUUUGCUUUGGUCGUACAUGAGGAUCACCCAUGUAGGAUAUGGUAAAAUUUGCUUGCUAGAAGGAUAGAGUGGUC [salish99_ExNG3_r04_612] (Eterna round: R96, puzzle: Exclusion NG 3) | MS2 coat protein | not fulfilled |
| ACAUGACUAGGAUAUACAUGAGGAUCACCCAUGUGACCACAAACAUGCUAUAUGGGCAGUAGAAGGAGUUGGAA [Eternabot (L1) Solution 86] (Eterna round: R97, puzzle: Exclusion 3) | MS2 coat protein | fulfilled |
| AUCGGGUCAGGAUAUCAUAGGAGCUGAUAUCCUCGGCUCGGUGAGAAGGGACUUGAGGAUCACCCAAGUAGGGC [Ririonte] (Eterna round: R97, puzzle: Exclusion 4) | MS2 coat protein | not fulfilled |
| AUAUUACAUGAGGAUCACCCAUGUGAGGAUAUGGAGAGAGACCGCCCGGUCGCGUACACCAGAAGGCGCAGGCG [1st #60] (Eterna round: R97, puzzle: Exclusion 1) | MS2 coat protein | not fulfilled |

Query block: Would you say UUGUUACAUGAGGAUCACCCAUGUGAGGAUAUGGCCCGCCCGGCGUGAGCUGGUUUUGUCAGAAGGCGCAUAGG [salish99_ex1_r4_024] (Eterna round: R97, puzzle: Exclusion 1) shows apparent KD of MS2 coat protein at minimum 50 nM?
Result block: fulfilled
